System: NIH3T3
assay_remarks: Inhibition of serum-stimulated growth of NIH3T3 cells after 3 days by SRB assay
test_parameters: Mus musculus, NIH3T3, 72 h
quantity: IC50

compound | recorded_measurement
ClCCN(CCNN=Nc1ccc2ncnc(Nc3cccc(Cl)c3)c2c1)c1ccc(Cl)cc1 | 27.6 µM

In: Record request: IC50 value, item CN(CCCl)CCN/N=N/c1ccc2ncnc(Nc3cccc(Cl)c3)c2c1
Out: 27.2 µM

In: Same question for COc1ccc(N(CCN=NNc2ccc3ncnc(Nc4cccc(Cl)c4)c3c2)CC(C)Cl)cc1 (stereo unspecified) please.
Out: 21.5 µM

----------
Test system: NIH3T3
assay_remarks: Inhibition of serum-stimulated growth of NIH3T3 cells after 3 days by SRB assay
test_parameters: nih3t3
quantity: pIC50
pIC50 here: minus log base 10 of the concentration, concentration in moles per litre.

In: Record request: pIC50 value, item Nc1ccc2ncnc(Nc3cccc(Cl)c3)c2c1
Out: 4.42

----------
assayed_target: Epidermal growth factor receptor (Homo sapiens, UniProt P00533)
Sequence (P00533 whole entry): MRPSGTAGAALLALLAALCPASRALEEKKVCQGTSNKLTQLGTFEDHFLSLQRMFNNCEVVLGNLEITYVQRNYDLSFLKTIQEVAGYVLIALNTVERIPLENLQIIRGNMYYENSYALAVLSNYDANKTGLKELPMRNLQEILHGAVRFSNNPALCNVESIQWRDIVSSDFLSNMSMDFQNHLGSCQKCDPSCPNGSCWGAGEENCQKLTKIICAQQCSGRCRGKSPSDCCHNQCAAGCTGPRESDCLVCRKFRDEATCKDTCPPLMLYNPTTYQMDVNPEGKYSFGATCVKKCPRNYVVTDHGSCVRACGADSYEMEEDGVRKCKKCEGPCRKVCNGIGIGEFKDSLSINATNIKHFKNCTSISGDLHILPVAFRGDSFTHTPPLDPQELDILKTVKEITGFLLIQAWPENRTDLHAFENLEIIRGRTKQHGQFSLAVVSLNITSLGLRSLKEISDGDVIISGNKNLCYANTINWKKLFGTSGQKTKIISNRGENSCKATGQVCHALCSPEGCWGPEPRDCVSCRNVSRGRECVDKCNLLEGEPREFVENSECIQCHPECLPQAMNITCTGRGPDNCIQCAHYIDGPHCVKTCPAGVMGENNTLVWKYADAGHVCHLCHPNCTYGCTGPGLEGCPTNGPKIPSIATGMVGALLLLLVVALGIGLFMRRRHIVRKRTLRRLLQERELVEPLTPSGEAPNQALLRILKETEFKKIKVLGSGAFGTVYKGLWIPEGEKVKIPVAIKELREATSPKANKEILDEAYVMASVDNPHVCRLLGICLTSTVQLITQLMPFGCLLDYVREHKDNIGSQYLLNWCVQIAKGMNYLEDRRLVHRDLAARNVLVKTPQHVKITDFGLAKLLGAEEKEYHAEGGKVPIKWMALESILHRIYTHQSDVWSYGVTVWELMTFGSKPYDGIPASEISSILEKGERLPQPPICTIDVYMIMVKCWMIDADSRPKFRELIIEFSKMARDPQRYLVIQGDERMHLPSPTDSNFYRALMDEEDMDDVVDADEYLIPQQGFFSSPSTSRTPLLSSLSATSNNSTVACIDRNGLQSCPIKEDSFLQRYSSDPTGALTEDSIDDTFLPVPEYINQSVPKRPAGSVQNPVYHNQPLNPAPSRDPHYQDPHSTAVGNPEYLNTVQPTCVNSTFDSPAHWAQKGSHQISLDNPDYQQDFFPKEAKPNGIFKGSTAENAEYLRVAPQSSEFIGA
The reader will find reported IC50 values listed item by item below.
Respond with the bare value in nM.

// known answers, use as guide
compound | IC50 [nM]
CN(CCCl)CCN/N=N/c1ccc2ncnc(Nc3cccc(Cl)c3)c2c1 | 4.4
ClCCN(CCNN=Nc1ccc2ncnc(Nc3cccc(Cl)c3)c2c1)c1ccc(Cl)cc1 | 2200
COc1ccc(N(CCN=NNc2ccc3ncnc(Nc4cccc(Cl)c4)c3c2)CC(C)Cl)cc1 (stereo not given) | 970
COc1ccc(N(CCCl)CCN/N=N/c2ccc3ncnc(Nc4cccc(Cl)c4)c3c2)cc1 | 3960

Turning to the following compound.
In: Record request: IC50 value, item ClCCN(CCNN=Nc1ccc2ncnc(Nc3cccc(Cl)c3)c2c1)Cc1ccccc1
Out: 71

----------
Test system: NIH3T3
assay_remarks: Inhibition of serum-stimulated growth of NIH3T3 cells transfected with HER14 after 3 days by SRB assay
test_parameters: nih3t3
quantity: pIC50
pIC50 here: minus log base 10 of the concentration, concentration in moles per litre.

In: Record request: pIC50 value, item Nc1ccc2ncnc(Nc3cccc(Cl)c3)c2c1
Out: 5.50

----------
The reader will find reported IC50 values listed item by item below.
System: NIH3T3
assay_remarks: Inhibition of serum-stimulated growth of NIH3T3 cells after 3 days by SRB assay
test_parameters: Mus musculus, NIH3T3, 72 h

// known answers, use as guide
mol_smiles | IC50
COc1ccc(N(CCCl)CCN/N=N/c2ccc3ncnc(Nc4cccc(Cl)c4)c3c2)cc1 | 9.07 µM
CN(C)CCN/N=N/c1ccc2ncnc(Nc3cccc(Cl)c3)c2c1 | 39.5 µM

Turning to the following compound.
In: Record request: IC50 value, item ClCCN(CCNN=Nc1ccc2ncnc(Nc3cccc(Cl)c3)c2c1)Cc1ccccc1
Out: 15.2 µM
